PROTOCOL_SUMMARY: NCI Yeast Anticancer Drug Screen. Data for the mec2-1 strain (AID 157)
REPORTED_CONDITIONS: S. cerevisiae mec2-1 strain, at 50.0 µM (retest, dose inferred, filed as 5.0)
Procedure: Growth inhibition of yeast strains with defined genetic alterations is measured as a screen for potential anti-cancer activity. Selected strains with alterations in DNA damage repair or cell cycle control were exposed to compounds and growth inhibition was measured relative to vehicle treated controls. The strain used in this assay is mec2-1
The panel holds about 79,000 compounds, 15% with a hit somewhere; the sample as a whole holds those more often. Activity calls are given as the source filed them. Rule as the data show it: active = growth inhibition above about 70%; inactive = the rest.
Outcome codes: YES = active, NO = inactive

>  <COMPOUND>
Cc1cc(C(=O)O)c(C)cc1SSc1cc(C)c(C(=O)O)cc1C

>  <ASSIGNED_LABEL>
YES

$$$$
>  <COMPOUND>
CC(=O)N1C(C(=O)NNc2ccccc2)CSC1c1ccccc1 (configuration not stated)

>  <ASSIGNED_LABEL>
YES

$$$$
>  <COMPOUND>
CCCC1(C)C(C#N)(C#N)C1(C#N)C#N

>  <ASSIGNED_LABEL>
YES

$$$$
>  <COMPOUND>
CCC[CH2][Sn]([CH2]CCC)([O]C(=O)c1ccc(C)c(N)c1)[O]C(=O)c1ccc(C)c(N)c1

>  <ASSIGNED_LABEL>
YES

$$$$
>  <COMPOUND>
NN=C(CC(O)(C(F)(F)Cl)C(F)(F)Cl)CC(O)(C(F)(F)Cl)C(F)(F)Cl

>  <ASSIGNED_LABEL>
YES

$$$$
>  <COMPOUND>
S=C(Nc1ccccc1)[S][Sb]([S]C(=S)Nc1ccccc1)[c]1ccccc1

>  <ASSIGNED_LABEL>
YES

$$$$
>  <COMPOUND>
CS(=O)(=O)OCCN(CCOS(C)(=O)=O)c1ccc(N=Nc2ccccc2)cc1

>  <ASSIGNED_LABEL>
YES

$$$$
>  <COMPOUND>
CC(C)c1cc(C(=O)[O-])c(O)c(C(C)C)c1.CC(C)c1cc(C(=O)[O-])c(O)c(C(C)C)c1.CC(C)c1cc(C(=O)[O-])c(O)c(C(C)C)c1.CC(C)c1cc(C(=O)[O-])c(O)c(C(C)C)c1.CC(C)c1cc(C(=O)[O-])c(O)c(C(C)C)c1.CC(C)c1cc(C(=O)[O-])c(O)c(C(C)C)c1.[Cu+2].[Mn+2].[Mn+2]

>  <ASSIGNED_LABEL>
NO

$$$$
>  <COMPOUND>
CCCCCCCCCCCCCCNC(=O)C[N+](C)(C)Cc1ccccc1

>  <ASSIGNED_LABEL>
YES

$$$$
>  <COMPOUND>
COc1cc2c(c(OC)c1OC)-c1ccc(O)c(=O)cc1C(N=Cc1ccccc1)CC2 (configuration not stated)

>  <ASSIGNED_LABEL>
NO

$$$$
>  <COMPOUND>
ClC(Cl)(Cl)C1OCOC(C(Cl)(Cl)Cl)O1 (configuration not stated)

>  <ASSIGNED_LABEL>
YES

$$$$
>  <COMPOUND>
CN(Cc1ccccc1)C(c1ccccc1)C(O)C(O)(c1ccccc1)c1ccccc1 (configuration not stated)

>  <ASSIGNED_LABEL>
YES

$$$$
>  <COMPOUND>
O=C1C(=O)N(c2ccccc2)N=C1N=Nc1ccccc1

>  <ASSIGNED_LABEL>
YES

$$$$
>  <COMPOUND>
CC1=C(c2ccccc2)C(=O)OC1=O

>  <ASSIGNED_LABEL>
NO

$$$$
>  <COMPOUND>
CCc1cccc(C(C)(C)C)c1NC(=S)/N=C/C(C(=O)c1ccccc1)=C(\O)c1ccccc1

>  <ASSIGNED_LABEL>
NO

$$$$
>  <COMPOUND>
Cc1ccc(O)c(Cc2ccc(Cl)cc2)c1

>  <ASSIGNED_LABEL>
YES

$$$$
>  <COMPOUND>
OC12C3C4CC5C(C4[C@@H]1Br)C2[C@@](O)(c1c(F)c(F)c(F)c(F)c1F)C53 (some centres not stated)

>  <ASSIGNED_LABEL>
NO

$$$$
